System: ACHN renal
Test: NCI-60 one-dose screen, 48 h
Details: 10 µM unless noted
This is part of a sample that, as a whole, favours compounds with a hit. Of some 83,000 tested, about 20% had one in any assay. Active and inactive are the calls of the source. How the source made its calls: active means growth percent below 10; inactive means the rest.
Select the matching outcome among active, inactive

Some solved entries appear below for comparison.
O=C1CC(Sc2n[nH]c(-c3ccncc3)n2)C(=O)N1c1ccc(Br)cc1 (stereo unspecified) = inactive
N#Cc1c(-c2ccc(Br)cc2)nc2n[nH]c(-c3ccc(Br)cc3)c2c1-c1ccc(C(F)(F)F)cc1 = inactive
CN(C)c1nc(NCCNS(=O)(=O)c2ccc(C3=Nc4c(N)nc(N)nc4NC(c4ccc(F)cc4)C3)cc2)nc(Nc2ccc(F)cc2)n1 (stereo unspecified) = inactive
COc1ccc2c(c1)c(-c1cc(N)n3nc(-c4cn(C)c5ccccc45)cc3n1)cn2C = active
COc1ccc(-c2nnc3ccc(N/N=C/c4ccc(O)cc4)nn23)cc1 = inactive
COc1ccc(-c2ccnc(SCc3cc4ccccc4[nH]c3=O)n2)cc1 = inactive

State the result this test recorded for CN(C)c1nc(NCCNS(=O)(=O)c2ccc(C3=Nc4c(N)nc(N)nc4NC(c4ccc(C(F)(F)F)cc4)C3)cc2)nc(Nc2ccc(F)cc2)n1 (stereo unspecified) . inactive

Any idea what this test logged for C(=C\c1cc(/C=C/c2ccccc2)c2ccccc2n1)/c1ccccc1 ? inactive

====

Test system: NCI/ADR-RES ovarian
Test: NCI-60 one-dose screen, 48 h (100 = growth as untreated, 0 = no growth, -100 = all killed)
Conditions: 10 µM unless noted
Compounds without any hit were thinned out: in the full panel of roughly 83,000, 20% have a hit.
assay_endpoint: growth (%)
Numbers only, in %.

CC(C)(C)OC(=O)/C=C/c1cccc2c1C(=O)NC(C)(c1cc3cc(Cl)ccc3oc1=O)N2 (centres undefined) = 25.4

Your task in this section: give growth for each listed record.
1. O=C(N1c2ccccc2Sc2ccccc21)n1ccc2cccnc21
2. C=C1CC[C@@H]2[C@]3(C)COC(c4ccccc4)O[C@@H]3CC[C@@]2(C)[C@@H]1C/C=C1/C(=O)OCC1OC(C)=O (some centres undefined)
3. COc1ccc(C(=O)/C=C/c2ccc(Oc3nc(Nc4ccc(F)cc4)nc(N(C)C)n3)c(OC)c2)cc1
4. CCOC(=O)C1=C(N)N(c2ccccc2)C2=C(C(=O)CC(C)(C)C2)C1c1ccc(N2CCOCC2)cc1 (centres undefined)
5. COc1ccc2c(c1)C(=N/N=C(\C)c1ccc(OC)c(S(N)(=O)=O)c1)C(=O)N2
6. O=C(NN1C(=O)/C(=C/C=C/c2ccc([N+](=O)[O-])o2)SC1=S)c1ccc(Cl)cc1
7. CN1CCN(c2ccc(C(=O)/C=C/c3ccc(Br)cc3)cc2)CC1
8. N=C1N=C(SCc2nc3ccccc3[nH]2)NC(=O)/C1=C/c1ccc(Cl)cc1

[57.7, -73.1, 40, 100, 100, -42.6, 45.1, 100]

====

Record form. Attribute: growth. Fill in for each entry.
System: CAKI-1 renal
Experiment: NCI-60 one-dose screen, 48 h (100 = growth as untreated, 0 = no growth, -100 = all killed)
Conditions: 10 µM unless noted
Description: Growth inhibition of the CAKI-1 human tumor cell line is measured as a screen for anti-cancer activity. Cells are grown in 96 well plates and exposed to the test compound for 48 hours. Compounds are tested at a single concentration, which is 10^-5 M for most compounds. The reported endpoint is percent growth (GI% or GIPRCNT), where numbers from 0 - 100% represent growth inhibition, and numbers from -100% - 0 represent cell death. For example, a value of 40 represents 60% growth inhibition. […]
This is part of a sample that, as a whole, favours compounds with a hit. Of some 83,000 tested, about 20% had one in any assay.
One number for each entry, in %.

Guide cases for growth, answers given:
Cc1cc2c(cc1Cl)C(=O)/C(=C/c1ccc(F)cc1)O2 = 75.3
COc1c(F)ccc(C(=O)Nc2ccc3nc(NC(=O)C4CCCN(S(=O)(=O)c5cccc(C(F)(F)F)c5)C4)sc3c2)c1F (centres undefined) = 83.1
O=c1[nH]n(C(=S)N/N=C/c2ccccc2Cl)c(=O)c2ccccc12 = 27.5
Cn1cc(-c2nnc(N)nc2-c2c[nH]c3ccc(Br)cc23)c2cc(Br)cnc21 = 33

For each of the items listed, what is its growth?
1. CC1(C)CC[C@]2(C(=O)Nc3ccc(F)cc3)CC[C@]3(C)C(=CCC4[C@@]5(C)C[C@@H](O)[C@H](O)[C@@](C)(CO)C5CC[C@]43C)C2C1 (some centres undefined)
2. O=C(NN1C(=O)/C(=C/C=C/c2ccc([N+](=O)[O-])o2)SC1=S)c1ccc(Cl)cc1
3. Cn1cc(-c2nc(N)nnc2-c2c[nH]c3ccc(F)cc23)c2cccnc21
4. Cc1ccc([C@H]2C(C(=O)c3ccc(Cl)cc3)C3(N[C@@H]2c2ccccc2)C(=O)Nc2ccc(Br)cc23)cc1 (some centres undefined)
5. C/C(=N\N=C\c1cc([N+](=O)[O-])ccc1Cl)c1ccc2c(c1)Nc1ccccc1S2

1. 42.7
2. -100
3. 12.6
4. 44
5. 31.3

All values here come from PubChem BioAssay (NCI).
